- Tested on: HeLa
- ASSAY: MTT cytotoxicity assay, HeLa cells
- Type: cell-based
- PARTICULARS: Homo sapiens, 72 h, read-out: IC50 (μM) HeLa
ASSAY_ENDPOINT: IC50 (µM)
Field: numeric (µM). Do not append units.

Use these answered entries as a reference point.
COc1cc(-c2coc3c(CC=C(C)C)c(OC)c(OC)c(O)c3c2=O)c(OC)cc1O [Compound 5]	35.7
COc1cccc2c1C(=O)c1c(O)c3c(c(O)c1C2=O)C[C@@](O)(C(=O)CO)C[C@@H]3O[C@H]1C[C@H](N)[C@H](O)[C@H](C)O1 [Doxorubicin, reference compound]	0.03

// moving on: another record for IC50
Prompt: Entry COc1cc(OC)c(-c2coc3c(CC=C(C)C)c(OC)c(OC)cc3c2=O)cc1OC [Compound 4] has what IC50?
Response: 7.86
